Items are presented alongside their recorded Luminescence activity in the cell extracts, fold higher than wild KAZ.
Tested on: CHO-K1 cells
Assay: Luminescence activity of KAZ mutants expressed in animal culture cells without secretional signal peptide sequence
Format: cell-based, Chinese hamster
Conditions: vectors without a secretion signal; CHO-K1; coelenterazine
In your response, put the unit directly after the numeric value.

KAZ-V44I: KAZ with single amino acid substitution V44I, SEQ ID NO: 4 (protein) FTLADFVGDWQQTAGYNQDQVLEQGGLSSLFQALGVSVTPIQKIVLSGENGLKADIHVIIPYEGLSGFQMGLIEMIFKVVYPVDDHHFKIILHYGTLVIDGVTPNMIDYFGRPYPGIAVFDGKQITVTGTLWNGNKIYDERLINPDGSLLFRVTINGVTGWRLCENILA :: 3.7 fold
KAZ-A54I: KAZ with single amino acid substitution A54I, SEQ ID NO: 6 (protein) FTLADFVGDWQQTAGYNQDQVLEQGGLSSLFQALGVSVTPIQKVVLSGENGLKIDIHVIIPYEGLSGFQMGLIEMIFKVVYPVDDHHFKIILHYGTLVIDGVTPNMIDYFGRPYPGIAVFDGKQITVTGTLWNGNKIYDERLINPDGSLLFRVTINGVTGWRLCENILA :: 6.7 fold

GET /value?item= KAZ-V44I-A54I: KAZ mutant with two amino acid substitutions V44I and A54I, SEQ ID NO: 10 (protein) FTLADFVGDWQQTAGYNQDQVLEQGGLSSLFQALGVSVTPIQKIVLSGENGLKIDIHVIIPYEGLSGFQMGLIEMIFKVVYPVDDHHFKIILHYGTLVIDGVTPNMIDYFGRPYPGIAVFDGKQITVTGTLWNGNKIYDERLINPDGSLLFRVTINGVTGWRLCENILA &field=Luminescence activity in the cell extracts, fold higher than wild KAZ returns 23 fold
